// provenance: ChEMBL document CHEMBL3046569

- experiment-notes: Therapeutic index, ratio of IC50 for human H9 cells to EC50 for HIV1
- Assay type: cell-based
- test-parameters: h9
Label 0 if pTI falls below -1; label 1 in every other case.

Take a look at these entries with their results.
>>> qualitative_label("CC(C)[C@@H]1CC[C@]2(C(=O)OCc3ccccc3)CC[C@]3(C)[C@H](CC[C@@H]4[C@@]5(C)CC[C@H](OC(=O)CCCC(=O)O)C(C)(C)[C@@H]5CC[C@]43C)[C@@H]12")
0
>>> qualitative_label("C=C(C)[C@@H]1CC[C@]2(CN)CC[C@]3(C)[C@H](CC[C@@H]4[C@@]5(C)CC[C@H](N)C(C)(C)[C@@H]5CC[C@]43C)[C@@H]12")
1
>>> qualitative_label("C=C(C)[C@@H]1CC[C@]2(/C=N/O)CC[C@]3(C)[C@H](CC[C@@H]4[C@@]5(C)CC/C(=N\\O)C(C)(C)[C@@H]5CC[C@]43C)[C@@H]12 [BETULIN-3,28-DIOXIME]")
1
>>> qualitative_label("CC(C)[C@@H]1CC[C@]2(C(=O)O)CC[C@]3(C)[C@H](CC[C@@H]4[C@@]5(C)CC[C@H](OC(=O)CCCC(=O)O)C(C)(C)[C@@H]5CC[C@]43C)[C@@H]12")
1
>>> qualitative_label("C=C(COC(C)=O)[C@@H]1CC[C@]2(COC(C)=O)CC[C@]3(C)[C@H](CC[C@@H]4[C@@]5(C)CC[C@H](OC(C)=O)C(C)(C)[C@@H]5CC[C@]43C)[C@@H]12")
1
>>> qualitative_label("C=C(C)[C@@H]1CC[C@]2(COC(=O)CC3(CC(=O)O)CCCC3)CC[C@]3(C)[C@H](CC[C@@H]4[C@@]5(C)CCC(=O)C(C)(C)[C@@H]5CC[C@]43C)[C@@H]12")
1
>>> qualitative_label("CC(C)[C@@H]1CC[C@]2(C(=O)OC(=O)OCN(C)C)CC[C@]3(C)[C@H](CC[C@@H]4[C@@]5(C)CCC(=O)C(C)(C)[C@@H]5CC[C@]43C)[C@@H]12")
1
>>> qualitative_label("C=C(C)[C@@H]1CC[C@]2(C(=O)O)CC[C@]3(C)[C@H](CC[C@@H]4[C@@]5(C)CC[C@H](O)C(C)(C)[C@@H]5CC[C@]43C)[C@@H]12 (stereo in doubt; 8) [BETULINIC ACID]")
0
>>> qualitative_label("CC(C)[C@@H]1CC[C@]2(COC(=O)CC3(CC(=O)O)CCCC3)CC[C@]3(C)[C@H](CC[C@@H]4[C@@]5(C)CC[C@H](OC(=O)CC6(CC(=O)O)CCCC6)C(C)(C)[C@@H]5CC[C@]43C)[C@@H]12")
0

From here, focus on the item given below.
Problem: Is pTI for C=C(C)[C@@H]1CC[C@]2(COC(=O)CCC(=O)O)CC[C@]3(C)[C@H](CC[C@@H]4[C@@]5(C)CC[C@H](OC(=O)CCC(=O)O)C(C)(C)[C@@H]5CC[C@]43C)[C@@H]12 at or above -1?
Result: 1

###

- experiment-notes: Therapeutic index, ratio of IC50 for human H9 cells to EC50 for HIV1
- Assay type: cell-based
- test-parameters: h9
Label 0 if pTI falls below -2; label 1 in every other case.

Take a look at these entries with their results.
>>> qualitative_label("C=C(C)[C@@H]1CC[C@]2(COC(=O)CC(C)(C)CC(=O)O)CC[C@]3(C)[C@H](CC[C@@H]4[C@@]5(C)CC[C@H](O)C(C)(C)[C@@H]5CC[C@]43C)[C@@H]12")
1
>>> qualitative_label("C=C(C)[C@@H]1CC[C@]2(COC(=O)CC3(CC(=O)O)CCCC3)CC[C@]3(C)[C@H](CC[C@@H]4[C@@]5(C)CC[C@H](OC(=O)CC6(CC(=O)O)CCCC6)C(C)(C)[C@@H]5CC[C@]43C)[C@@H]12")
0
>>> qualitative_label("C=C(C)[C@@H]1CC[C@]2(CNC(=O)CC(C)(C)CC(=O)O)CC[C@]3(C)[C@H](CC[C@@H]4[C@@]5(C)CC[C@H](NC(=O)CC(C)(C)CC(=O)O)C(C)(C)[C@@H]5CC[C@]43C)[C@@H]12")
1
>>> qualitative_label("C=C(C)[C@@H]1CC[C@]2(COC(=O)CC(C)(C)CC(=O)O)CC[C@]3(C)[C@H](CC[C@@H]4[C@@]5(C)CC[C@H](OC(=O)CC(C)(C)CC(=O)O)C(C)(C)[C@@H]5CC[C@]43C)[C@@H]12")
0
>>> qualitative_label("CC(C)[C@@H]1CC[C@]2(C(=O)OC(=O)N3CCOCC3)CC[C@]3(C)[C@H](CC[C@@H]4[C@@]5(C)CC[C@H](O)C(C)(C)[C@@H]5CC[C@]43C)[C@@H]12")
1

Problem: Is pTI for C=C(C)[C@@H]1CC[C@]2(COC(=O)CCCC(=O)O)CC[C@]3(C)[C@H](CC[C@@H]4[C@@]5(C)CC[C@H](OC(=O)CCCC(=O)O)C(C)(C)[C@@H]5CC[C@]43C)[C@@H]12 at or above -2?
Result: 1

Problem: Is pTI for CCC(C)(CC(=O)O)CC(=O)OC[C@]12CC[C@@H](C(C)C)[C@@H]1[C@H]1CC[C@@H]3[C@@]4(C)CC[C@H](OC(=O)CC(C)(CC)CC(=O)O)C(C)(C)[C@@H]4CC[C@@]3(C)[C@]1(C)CC2 (stereo partly drawn) at or above -2?
Result: 0

Problem: Is pTI for C=C(C)[C@@H]1CC[C@]2(C(=O)O)CC[C@]3(C)[C@H](CC[C@@H]4[C@@]5(C)CC[C@H](OC(=O)C(C)(C)CC(=O)O)C(C)(C)[C@@H]5CC[C@]43C)[C@@H]12 at or above -2?
Result: 1
